- target_under_test: recombinant pentameric gH complex (Towne strain) (human cytomegalovirus, Towne strain) (UniProt P17176)
- Sequence (P17176 30-715, one chain of several): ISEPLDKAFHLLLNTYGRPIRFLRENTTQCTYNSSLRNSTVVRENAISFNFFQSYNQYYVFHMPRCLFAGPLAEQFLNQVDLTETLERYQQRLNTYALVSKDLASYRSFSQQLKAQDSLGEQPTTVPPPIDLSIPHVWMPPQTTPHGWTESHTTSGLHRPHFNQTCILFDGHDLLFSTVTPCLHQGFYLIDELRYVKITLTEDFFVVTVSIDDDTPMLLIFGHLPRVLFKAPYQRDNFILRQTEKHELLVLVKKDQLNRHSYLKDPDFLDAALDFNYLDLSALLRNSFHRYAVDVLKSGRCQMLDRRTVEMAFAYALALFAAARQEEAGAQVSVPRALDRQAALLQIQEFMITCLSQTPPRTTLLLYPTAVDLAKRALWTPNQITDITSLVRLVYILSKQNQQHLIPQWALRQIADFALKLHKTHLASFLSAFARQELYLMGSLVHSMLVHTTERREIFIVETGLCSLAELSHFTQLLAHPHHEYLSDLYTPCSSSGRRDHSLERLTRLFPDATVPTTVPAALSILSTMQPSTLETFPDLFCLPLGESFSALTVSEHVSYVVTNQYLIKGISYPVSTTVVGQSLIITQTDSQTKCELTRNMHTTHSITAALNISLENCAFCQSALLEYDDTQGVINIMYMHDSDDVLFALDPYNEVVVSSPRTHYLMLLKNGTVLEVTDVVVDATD
- assay_method_text: BLI competition on His-pentamer; competitor (antibody 2): 124.4
assay_metric: Pair-wise inhibition (%)
Numbers only, in %.

Observe how each entry below is paired with its result.
binder: 1-103 (antibody, V domains shown) VH: QLQLQESGPGLVKPSETLSLTCSVSGDAISGSNYYWGWIRQPPGKGLQWIGSIYHTGSTFYNPSFSSRVTLSVDTSKNQFSLKLISVNAADTAVYYCARRIRGYSGTYDWGQGTLVTVSS VL: DIQLTQSPSFLSASVGDRVTITCRASQDISSYVAWYQQKPGNAPKLLISSASTLPSGVPSRFSGSRSGTDFTLTISSLQPEDFATYYCQQLNNFGPGTTVDIK
Pair-wise inhibition (%): -22
--
binder: 2-25 (antibody, V domains shown) VH: QVQLVESGAEVKKPGALVKVSCKASGYTFTNYAIHWVRQASGQRLEWMGWINAGRGNTKYSQKFQGRVTITRDTSASTAYMELSSLRSEDAAVYFCARDESTGDYYYYMDVWGKGTTVTVSS VL: SYELTQPPSVSVSPGQTASITCSGDRLDDKYASWYQQKAGQSPVLVIYQDNKRPSGIPERFSGSNSGNTATLTISGTQAMDEADYYCQAWDSDTYVFGTGTKVTVL
Pair-wise inhibition (%): 1
--
binder: 2-18 (antibody, V domains shown) VH: EVQLVQSGGGLVQPGGSLRVSCAASGFSFSDHDMDWVRQAPGKGFEWVGRSRNKDYSSTTEYAASVRGRFTISRHTSEDLLYLELNTVKTEDTAVYFCARGPHHSDRSGYYGGTFDIWGQGTMVTVSS VL: DIQMTQSPSSVSASVGDRVIITCRASQGISSWLAWYQQKPGRAPRLLIYDASTLESGVPSRFSGRGSGTEFTLTINSLQPEDFATYYCQQGNMFPLTFGGGTKVEIK
Pair-wise inhibition (%): -11
--
binder: 1-85 (antibody, V domains shown) VH: QVHLVESGGGLVKPGRSLRLSCAASGFTFSDYYMAWIRQVPGKGLEWVSFISSSGRTIYYADSVKGRFTISRDNAKDSLYLQMHSLRAEDTAVYYCARDSYSKLVDIEAIEAFDIWGRGTMVTVSS VL: SYELAQPPSVSVAPGKTATIACGGDNIGGKSVHWYLQKAGQAPVLVISYDSDRPSGIPERFSGSNSGNTATLTISRVEAGDEADYFCQVWDRHGDHVVFGGGTKLTVL
Pair-wise inhibition (%): 24

Now for the binder whose Pair-wise inhibition (%) we want.
In: For the binder 3-7 (antibody, V domains shown) VH: QVQLVQSGAEVKKPGASVKVSCKTSGYTFNTYAISWVRQAPGQGLEWVGWINTYSGSTKYAQKVQGRVTMTTDTSTSTAYMELRGLRSDDTAVYYCARDGYNWGFLDFWGQGSLVTVSS VL: DIQMTQSPSSLSASVGDRVTITCRASQGISNYLAWYQQKPGKLPKLLIYAASTLQSGVPSRFSGSGSGTDFTLTISSLQPEDVASYYCQKYNSAPLTFGPGTKVDIK , report Pair-wise inhibition (%).
Out: 35

These measurements were taken from patent US11230591.
